Every entry's value here was drawn from patent US20230265151A1.

- tested.system: human GIP receptor (human)
- Sequence (looked up): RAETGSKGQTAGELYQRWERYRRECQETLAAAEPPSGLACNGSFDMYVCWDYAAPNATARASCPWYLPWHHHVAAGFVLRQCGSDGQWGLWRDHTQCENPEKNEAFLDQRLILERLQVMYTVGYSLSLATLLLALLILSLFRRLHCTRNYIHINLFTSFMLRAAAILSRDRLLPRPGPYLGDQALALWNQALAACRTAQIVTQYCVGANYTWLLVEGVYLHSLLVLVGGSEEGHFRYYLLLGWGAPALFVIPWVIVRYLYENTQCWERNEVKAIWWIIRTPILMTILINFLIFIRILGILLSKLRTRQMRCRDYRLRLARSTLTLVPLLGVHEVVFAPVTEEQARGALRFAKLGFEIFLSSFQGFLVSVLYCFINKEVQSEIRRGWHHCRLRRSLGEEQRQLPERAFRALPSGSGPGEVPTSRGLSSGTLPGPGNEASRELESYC
- test.details: cell-based or functional assay
Items are presented alongside their recorded cAMP Emax (1.0% HSA).
Return type: number; implicit unit %.

Some entries whose results are on file:
Y-Aib-EGT-αMeF(2F)-TSD-4Pal-SI-αMeL-LD-Orn-K((2-[2-(2-Amino-ethoxy)-ethoxy]-acetyl)2-(γ-Glu)-CO-(CH2)12-CO2H)AQ-Aib-EFI-(D-Glu)-αMeY-LIEGGK((2-[2-(2-Amino-ethoxy)-ethoxy]-acetyl)2-(γ-Glu)-CO-(CH2)12-CO2H)SSG-Orn-PPP-Orn-NH2 (peptide)    96.5
Y-Aib-EGT-αMeF(2F)-TSD-4Pal-SI-αMeL-LD-Orn-K((2-[2-(2-Amino-ethoxy)-ethoxy]-acetyl)2-(γ-Glu)-CO-(CH2)12-CO2H)AQ-Aib-EFI-(D-Glu)-αMeY-LIEGGK((2-[2-(2-Amino-ethoxy)-ethoxy]-acetyl)2-(γ-Glu)-CO-(CH2)12-CO2H)-NH2 (peptide)    81.2
Y-Aib-EGT-αMeF(2F)-TSD-4Pal-SI-αMeL-LD-Orn-K((εK)-(εK)-(γ-Glu)-CO-(CH2)12-CO2H)AQ-Aib-EFI-(D-Glu)-αMeY-LIEGGK((εK)-(εK)-(γ-Glu)-CO-(CH2)12-CO2H)-NH2 (peptide)    79.3

Shifting focus to the substance that follows.
Please report the recorded cAMP Emax (1.0% HSA) for Y-Aib-EGT-αMeF(2F)-TSD-4Pal-SI-αMeL-LD-Orn-K((2-[2-(2-Amino-ethoxy)-ethoxy]-acetyl)2-(γ-Glu)-CO-(CH2)12-CO2H)AQ-Aib-EFI-(D-Glu)-αMeY-LIEGGK((2-[2-(2-Amino-ethoxy)-ethoxy]-acetyl)2-(γ-Glu)-CO-(CH2)12-CO2H)SSG-NH2 (peptide) .
75.5
